Consider the following IC50 data for panel of kinases (Homo sapiens, UniProt P51813), collected from several reports.
Grouping key: IC50. Bins: lower range (below 0.2 µM), middle range (0.2 µM to below 0.9 µM), upper range (0.9 µM or more)

Example entries begin here.
{"Structure smiles": "CN1CC[C@H](Nc2n[nH]c3nccc(-c4ccc(CNC(=O)c5nc(C(C)(C)C)no5)c(F)c4)c23)C1", "Assayed target": "panel of kinases (Homo sapiens, UniProt P51813)", "Classification": "upper range"}
{"Structure smiles": "N[C@@H]1CCN(c2n[nH]c3nccc(-c4ccc(CNC(=O)c5nc6c(s5)CCCC6)c(F)c4)c23)C1", "Assayed target": "panel of kinases (Homo sapiens, UniProt P51813)", "Classification": "upper range"}
{"Structure smiles": "CC(C)c1noc(C(=O)NCc2ccc(-c3ccnc4[nH]nc(N5CC[C@@H](N)C5)c34)cc2F)n1", "Assayed target": "panel of kinases (Homo sapiens, UniProt P51813)", "Classification": "middle range"}
{"Structure smiles": "C=CC(=O)N1CCC[C@H](Nc2n[nH]c3nccc(-c4ccc(CNC(=O)c5nc(C(C)(C)C)no5)c(F)c4)c23)C1", "Assayed target": "panel of kinases (Homo sapiens, UniProt P51813)", "Classification": "upper range"}
{"Structure smiles": "C=CC(=O)N[C@H]1CC[C@H](Nc2n[nH]c3nccc(-c4ccc(CNC(=O)c5noc(C(C)(C)C)n5)c(F)c4)c23)CC1", "Assayed target": "panel of kinases (Homo sapiens, UniProt P51813)", "Classification": "middle range"}
{"Structure smiles": "CC1(C)Cc2cc(C(=O)NCc3ccc(-c4ccnc5[nH]nc(N[C@@H]6CCNC6)c45)cc3F)[nH]c2C1", "Assayed target": "panel of kinases (Homo sapiens, UniProt P51813)", "Classification": "upper range"}

Inquiry: Which category fits this record: C=CC(=O)N1CCOc2ccc(Nc3nc(Nc4ccc5c(c4)CC(=O)N5)ncc3C(C)=O)cc21
Reply text: lower range

Inquiry: And the next one, C=CC(=O)Nc1cc(Nc2nc(-c3ccnc(N4CCc5c(sc6c5CCCC6)C4=O)c3CO)cn(C)c2=O)ccc1N1CCN(C2CCOCC2)C[C@H]1C(F)(F)F ?
Reply text: lower range

Inquiry: And the next one, C=CC(=O)N[C@@H]1CCN(c2n[nH]c3nccc(-c4ccc(CNC(=O)c5nc(C(C)(C)C)no5)c(F)c4)c23)C1 ?
Reply text: lower range

Inquiry: And the next one, C=CC(=O)N1CCC[C@@H](Nc2nc(Nc3ccc4c(c3)OCCOCCOCCO4)ncc2F)C1 ?
Reply text: lower range

Inquiry: And the next one, CC(C)c1cc(C(=O)NCc2ccc(-c3ccnc4[nH]nc(N[C@@H]5CCCN[C@@H]5C)c34)cc2F)no1 ?
Reply text: upper range
